Listed below: IC50 values for each entry.
# Test system: HeLa cells
# experiment: MTT antiproliferative assay, HeLa
# Format: cell-based, human
# particulars: Homo sapiens, read-out: In vitro antiproliferative activity IC50, HeLa
# Experimental: IC50 values of the test compounds against A549, MCF-7, Hela and HepG2 cells were obtained from State Key Laboratory of Pharmaceutical Biotechnology, Nanjing University, and were determined by a standard (MTT)-based colorimetric assay (Beyotime Inst. Biotech., Nanjing, China). […] Optical absorbance was measured at 570 nm on a microplate reader (Bio-Rad, Hercules, CA, USA). […]
Just the number in µM, nothing appended.

Would you please look over these solved cases?
**Q:** Any idea what IC50 was measured for COc1ccc(/C=N/NC(=O)c2ccc(N3N=C(c4cccc(Cl)c4)CC3c3ccc4ccccc4c3)cc2)cc1 (stereo not shown) [Compound H29] ?
**A:** 43

**Q:** Quick check: IC50 of COc1cccc(/C=N/NC(=O)c2ccc(N3N=C(c4ccccc4F)CC3c3ccc4ccccc4c3)cc2)c1 (stereo not shown) [Compound H9] ?
**A:** 63.8

**Q:** Which IC50 reading was recorded for the compound COc1cccc(/C=N/NC(=O)c2ccc(N3N=C(c4cc(F)cc(F)c4)CC3c3ccc4ccccc4c3)cc2)c1 (stereo not shown) [Compound H12] ?
**A:** 50.3

Consider the record given below.
**Q:** // lookup IC50 for COc1ccc(/C=N/NC(=O)c2ccc(N3N=C(c4ccc(Br)cc4)CC3c3ccc4ccccc4c3)cc2)cc1 (stereo not shown) [Compound H32]
**A:** 25.6

###

# target system: epidermal growth factor receptor (EGFR) (Homo sapiens, UniProt P00533)
# Sequence (P00533 25-1210): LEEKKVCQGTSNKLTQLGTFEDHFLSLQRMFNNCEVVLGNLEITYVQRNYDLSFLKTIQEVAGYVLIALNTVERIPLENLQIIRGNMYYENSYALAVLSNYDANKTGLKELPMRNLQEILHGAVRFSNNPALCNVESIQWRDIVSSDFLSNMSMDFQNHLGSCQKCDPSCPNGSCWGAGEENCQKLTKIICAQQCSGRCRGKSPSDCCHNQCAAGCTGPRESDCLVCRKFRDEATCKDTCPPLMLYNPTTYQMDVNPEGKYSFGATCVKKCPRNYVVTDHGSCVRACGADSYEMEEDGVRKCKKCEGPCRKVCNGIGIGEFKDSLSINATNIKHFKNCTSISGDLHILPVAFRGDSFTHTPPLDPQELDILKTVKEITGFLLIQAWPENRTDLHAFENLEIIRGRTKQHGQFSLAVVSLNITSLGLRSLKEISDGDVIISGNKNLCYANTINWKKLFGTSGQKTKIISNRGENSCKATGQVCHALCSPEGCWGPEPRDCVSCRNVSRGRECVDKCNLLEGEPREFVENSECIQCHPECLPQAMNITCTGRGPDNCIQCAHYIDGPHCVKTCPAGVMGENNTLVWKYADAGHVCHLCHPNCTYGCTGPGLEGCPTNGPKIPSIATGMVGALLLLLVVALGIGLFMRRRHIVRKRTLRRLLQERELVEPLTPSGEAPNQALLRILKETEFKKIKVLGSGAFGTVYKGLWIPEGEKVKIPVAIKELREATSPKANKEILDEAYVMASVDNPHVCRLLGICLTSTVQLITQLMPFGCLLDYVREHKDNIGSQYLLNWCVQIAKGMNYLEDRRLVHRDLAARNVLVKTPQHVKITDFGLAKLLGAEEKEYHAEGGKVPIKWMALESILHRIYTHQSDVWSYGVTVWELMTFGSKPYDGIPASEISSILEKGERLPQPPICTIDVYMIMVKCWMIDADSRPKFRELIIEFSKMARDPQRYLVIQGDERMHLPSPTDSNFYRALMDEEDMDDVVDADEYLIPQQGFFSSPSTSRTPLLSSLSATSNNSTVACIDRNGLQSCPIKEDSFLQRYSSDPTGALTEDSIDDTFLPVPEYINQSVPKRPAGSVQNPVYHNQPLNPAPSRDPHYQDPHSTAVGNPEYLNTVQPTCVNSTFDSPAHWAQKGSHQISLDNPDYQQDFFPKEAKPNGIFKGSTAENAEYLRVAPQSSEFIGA
# experiment: EGFR kinase inhibition, solid-phase ELISA assay
Listed here are compounds together with their documented IC50.
// return numeric value only (unit: µM, not printed)

**Q:** # input compound: COc1ccc(/C=N/NC(=O)c2ccc(N3N=C(c4cc(F)cc(F)c4)CC3c3ccc4ccccc4c3)cc2)cc1 (stereo not shown) ; wanted: its IC50
**A:** 12.3

Further cases:
**Q:** Please report the recorded IC50 for COc1ccc(/C=N/NC(=O)c2ccc(N3N=C(c4cccc(F)c4)CC3c3ccc4ccccc4c3)cc2)cc1 (stereo not shown) .
**A:** 18.6

**Q:** Requested field: IC50. Item: COc1cccc(/C=N/NC(=O)c2ccc(N3N=C(c4ccc(F)cc4)CC3c3ccc4ccccc4c3)cc2)c1 (stereo not shown)
**A:** 14.1

**Q:** I would be grateful if you could share the reported IC50 for COc1cccc(/C=N/NC(=O)c2ccc(N3N=C(c4cccc(F)c4)CC3c3ccc4ccccc4c3)cc2)c1 (stereo not shown) .
**A:** 20

**Q:** Request the reported IC50 associated with COc1cccc(/C=N/NC(=O)c2ccc(N3N=C(c4cccc(Cl)c4)CC3c3ccc4ccccc4c3)cc2)c1 (stereo not shown)
**A:** 11.9

**Q:** Which IC50 is reported for this compound? COc1ccc(/C=N/NC(=O)c2ccc(N3N=C(c4cc(OC)c(OC)c(OC)c4)CC3c3ccc4ccccc4c3)cc2)cc1 (stereo not shown)
**A:** 24.6

**Q:** Recorded IC50 for COc1cccc(/C=N/NC(=O)c2ccc(N3N=C(c4ccc(Br)cc4)CC3c3ccc4ccccc4c3)cc2)c1 (stereo not shown) , please?
**A:** 9.01

###

Below: a set of entries, each annotated with reported pIC50.
# System: A549 cells
# experiment: MTT antiproliferative assay, A549
# Assay type: cell-based, human
# particulars: read-out: In vitro antiproliferative activity IC50, A549
Formally, pIC50 is defined as -log10 of the concentration c, with c in mol/L.

Reference set, count: 2
**Q:** Report pIC50 for COc1cccc(/C=N/NC(=O)c2ccc(N3N=C(c4ccccc4)CC3c3ccc4ccccc4c3)cc2)c1 (stereo not drawn) [Compound H1] please.
**A:** 4.84

**Q:** # input molecule: COc1ccc(/C=N/NC(=O)c2ccc(N3N=C(c4ccccc4)CC3c3ccc4ccccc4c3)cc2)cc1 (stereo not drawn) [Compound H17] ; wanted: its pIC50
**A:** 4.88

# evaluate next
**Q:** Which measured pIC50 value corresponds to COc1ccc(/C=N/NC(=O)c2ccc(N3N=C(c4cccc(C)c4)CC3c3ccc4ccccc4c3)cc2)cc1 (stereo not drawn) [Compound H19] ?
**A:** 5.65

Hello, the source for this data is paper PMC6273578, in case you need it.
